Measured Kd values are reported for all entries that follow.
# TARGET: T1, human DLL3 (recombinant antigen) (human, UniProt Q9NYJ7 27-492, limits assumed)
# T1 construct: also called hDLL3
# T1 sequence (looked up): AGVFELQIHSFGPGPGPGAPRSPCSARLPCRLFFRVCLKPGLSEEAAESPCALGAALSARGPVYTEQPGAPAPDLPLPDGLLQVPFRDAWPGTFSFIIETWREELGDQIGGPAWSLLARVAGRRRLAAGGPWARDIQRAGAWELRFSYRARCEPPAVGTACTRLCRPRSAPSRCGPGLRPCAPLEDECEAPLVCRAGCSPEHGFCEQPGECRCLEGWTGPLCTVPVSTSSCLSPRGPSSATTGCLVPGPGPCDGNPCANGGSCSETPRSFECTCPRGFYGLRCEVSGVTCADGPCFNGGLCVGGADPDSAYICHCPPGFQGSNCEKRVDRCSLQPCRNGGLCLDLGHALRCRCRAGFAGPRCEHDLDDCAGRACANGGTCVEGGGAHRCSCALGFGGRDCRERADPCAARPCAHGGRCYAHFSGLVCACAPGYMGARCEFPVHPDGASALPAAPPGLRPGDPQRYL
# PROTOCOL: affinity to hDLL3, H435Q-Fc format; method not given
Give the value in nM but do not write nM after it.

Some binders with known Kd results, for comparison:
Clone 24 VHH-Fc, H435Q-Fc format (Fc fusion, also called 24 (H435Q-Fc); not shown: hinge and human IgG1 Fc with H435Q (EU)) QVQYVESGGGLVQPGGSLRLSCAASGFTFSSYRINWYRQPPGKGRELVGSITDTGSTNYADSVKGRFTISRDNAKNTVYLQMSSLKPEDTAVYYCRAPTIAAYWGQGTQVTVSS	1.08
Clone 100 VHH-Fc, H435Q-Fc format (Fc fusion, also called 100 (H435Q-Fc); not shown: hinge and human IgG1 Fc with H435Q (EU)) QVQLVESGGGSVQPGGSLRLSCAASGIVFNSDVMGWYRQVPGKPRELVATITGGGSTNYATSVKGRFTISRDNAKNTVYLQMNSLRPEDTAVYYCNGRRGDSMLAFWAQGTQVTVSS	0.2

// query Reported Kd for Clone 186 VHH-Fc, H435Q-Fc format (Fc fusion, also called 186 (H435Q-Fc); not shown: hinge and human IgG1 Fc with H435Q (EU)) QVQVVESGGGLVQPGGSLTLSCAASGFDFSTYTVNWYRQAPGKEREKVARISSTGTTTNYANSAKGRFTLSRDNAKNRVYLQMNNLKPEDTAVYFCNFERFDSNYWGQGTQVTVSS : what is it?
// result 0.55
